details: buffer; pH 7.4; 200.0 µM
Readout type: solubility kinetic (µg/mL)
Field format: number, assumed µg/mL, no unit text.

// lookup solubility kinetic for CN(c1ccccc1)S(=O)(=O)c1ccc(C(=O)N2CCN(c3ccccc3Cl)CC2)cc1 6.8

Can you look up the measured solubility kinetic of O=C(O)CSCc1nc2ccccc2[nH]1 for me? 31.7

Can you share its solubility kinetic? I mean this molecule: CC(C)NC(=O)N(Cc1ccccc1)Cc1cccs1 41.8

Field request: solubility kinetic | item: Cc1ccc(N2Cc3ccccc3C2=O)cc1 7.8

---

Can you tell me solubility kinetic for the items I'm about to list?
conditions: buffer; pH 7.4; 200.0 µM
# number only, unit µg/mL dropped from output

Which solubility kinetic is reported for this molecule? CCOC(=O)C1CCN(C(=O)C2COc3ccccc3O2)CC1 (stereo not given) 32.3

So what does the record say about solubility kinetic for CC1CCN(S(=O)(=O)c2ccc(Cl)s2)CC1 ? 15.3

Given the entry Cc1ccc(S(=O)(=O)N2CCCCC2c2cccnc2)c(C)c1C (stereo not given) , report its measured solubility kinetic. 45.9

Fill in: solubility kinetic of O=C(NC1CCCCC1)C1CC(=O)N(CCc2ccc(F)cc2)C1 (stereo not given) is ___ 45

Given the entry O=C(NCc1ccco1)c1ccc(Cn2c(=S)[nH]c3ccccc3c2=O)cc1 , report its measured solubility kinetic. 0.4

Need solubility kinetic of O=c1onc(-c2ccccc2)c2ccccc12 , thanks. 27.7

Look up solubility kinetic: CCN(Cc1ccccc1)C(=O)c1oc2ccc(C)cc2c1C 3

Consider the molecule CC1CCCN(C(=O)Cc2cccc3ccccc23)C1 (stereo not given) and give its measured solubility kinetic. 38.3

Which value of solubility kinetic has been reported for CCC1CN(C(=O)NCc2ccccc2)c2ccccc2O1 (stereo not given) in the records? 43.2

Could you tell me which solubility kinetic is on file for CCSc1nc2sc3c(c2c(=O)n1-c1ccccc1)CCN(C(C)C)C3 ? 37

What value of solubility kinetic has been recorded for this entry: COc1ccc(/C=C/C(=O)c2cc3c(cc2N)OCO3)cc1 1.6

Query: solubility kinetic; subject: Cc1ccc(NC(=O)C2CCN(C(=O)c3ccco3)CC2)cc1C 45.1

Item under review: Cc1ccc(OCCn2ccnc2)c(C)c1 . Reported solubility kinetic? 22.8

Would you mind telling me what solubility kinetic value was observed for CN(C)CCC(O)c1ccccc1 (stereo not given) ? 13.3

Which solubility kinetic is listed for O=C(c1cc(Br)c(Br)s1)N1CCc2ccccc2C1 ? 7

Recorded solubility kinetic of CCOC(=O)C(O)(c1ccc(N=c2ccccn2C)cc1)C(F)(F)F (stereo not given) , please. 46.3
